This section presents molecules with their documented IC50 values.
experimental-target: CDK2/Cyclin E1 (Homo sapiens)
assay-details: CDK2/Cyclin E1 Caliper LabChip EZ Reader mobility shift assay
Assay type: biochemical
Design: purchased Eurofins 14-475
test-conditions: read-out: Caliper Assay (CDK2/CCNE1): IC50

Examples with their reported IC50 follow.
{"columns": ["molecule", "IC50"],
 "data": [
  ["C[C@@H](OCC1CCCCC1)[C@H](NC(=O)C1CN(C(=O)C2CCC(=O)NC2)CC12CN(C(=O)[C@H]1CC1(C)C)C2)C(=O)N1CCCCC1 (stereo partly drawn)", "1000 to 10000 nM"],
  ["CC1(C)C[C@@H]1C(=O)N1CC2(CN(C(=O)c3cnn(Cc4ccccc4)c3)C[C@H]2C(=O)Nc2ccc(Cc3ccccc3)nc2)C1", "100 to 1000 nM"],
  ["CNC(=O)[C@@H](NC(=O)[C@@H]1CN(C(=O)c2cnn(Cc3ccccc3)c2)CC12CN(C(=O)CC1CCC1)C2)[C@@H](C)OCc1ccccc1 [I-27A]", "1000 to 10000 nM"],
  ["C[C@@H](OCC1CCC(F)(F)CC1)[C@H](NC(=O)[C@@H]1CN(C(=O)c2cncs2)CC12CN(C(=O)[C@H]1CC1(C)C)C2)C(=O)N1CCC2(CC1)CC2", "≤ 10 nM"],
  ["CC1(C)C[C@@H]1C(=O)N1CC2(CN(C(=O)c3cnn(Cc4ccccc4)c3)C[C@H]2C(=O)NCc2cccnn2)C1", "> 10000 nM"]
]}

Give CDK2/Cyclin E1 (Homo sapiens) IC50 for the following molecule: CC1(C)C[C@@H]1C(=O)N1CC2(CN(C(=O)c3cnn(Cc4ccccc4)c3)C[C@@H]2C(=O)N[C@@H]2CC[C@@H]2O)C1 [I-201A]
> 10000 nM

Give CDK2/Cyclin E1 (Homo sapiens) IC50 for the following molecule: CNC(=O)[C@@H](NC(=O)[C@@H]1CN(Cc2cncs2)CC12CN(C(=O)[C@H]1CC1(C)C)C2)[C@@H](C)OCc1ccccc1 [I-51A]
> 10000 nM

Give CDK2/Cyclin E1 (Homo sapiens) IC50 for the following molecule: CC1(C)C[C@@H]1C(=O)N1CC2(CN(C(=O)c3cnn(Cc4ccccc4)c3)C[C@H]2C(=O)Nc2ccc(Cc3ccccc3)cc2)C1 [I-84A]
1000 to 10000 nM

Give CDK2/Cyclin E1 (Homo sapiens) IC50 for the following molecule: CNC(=O)[C@@H](NC(=O)[C@@H]1CN(C(=O)c2cnn(Cc3ccccc3)c2)CC12CN(C(=O)C(C)C1CC1)C2)[C@@H](C)OCc1ccccc1 (stereo partly drawn)
1000 to 10000 nM

Give CDK2/Cyclin E1 (Homo sapiens) IC50 for the following molecule: CNC(=O)[C@@H](NC(=O)[C@@H]1CN(C(=O)c2nccs2)CC12CN(C(=O)[C@H]1CC1(C)C)C2)[C@@H](C)OCC1CCCCC1
> 10000 nM

Give CDK2/Cyclin E1 (Homo sapiens) IC50 for the following molecule: CNC(=O)[C@@H](NC(=O)[C@H]1CN(C(=O)c2scnc2C)CC12CN(C(=O)[C@H]1CC1(C)C)C2)[C@@H](C)OCC1CCCCC1 [I-160B]
> 10000 nM

Give CDK2/Cyclin E1 (Homo sapiens) IC50 for the following molecule: CNC(=O)[C@@H](NC(=O)[C@@H]1CN(C(=O)c2cnn(Cc3ccccc3)c2)CC12CN(C(=O)[C@H]1CC1(C)C)C2)[C@@H](C)OCc1ccc(Br)cc1
≤ 10 nM
